Tested on: COLO 205 colon
protocol text: NCI-60 one-dose screen, 48 h
assay setup: 10 µM unless noted
About 83,000 compounds went through this panel and 20% of them were active in at least one assay; those are over-represented in the sample as a whole. Activity calls are given as the source filed them. How the source made its calls: active means growth percent below 10; inactive means the rest.
Possible outcomes: t for active, f for inactive

compound	class assignment
CCN1C(=O)/C(=C/C(=O)OC)S/C1=N\NC(=O)c1cc2ccc1/C=C\c1ccc(cc1)/C=C\2	f
COc1cc2nc(-c3ccc(C(F)(F)F)cc3)cc(OCCN3CCCCC3)c2cc1OC	f
CC(Sc1nc2ccccc2c(=O)n1CCc1ccc(S(N)(=O)=O)cc1)C(=O)Nc1ccc(Cl)cc1 (stereo unspecified)	f
O=C(CNCCN1CCOCC1)N1c2cccc3cccc(c23)N(C(=O)CNCCN2CCOCC2)C1c1cn(-c2ccccc2)nc1-c1cccc([N+](=O)[O-])c1	f
O=C(/C=C/c1ccc[nH]1)c1ccc(-n2ccc(C(F)(F)F)n2)c(F)c1	f
O=C1CC(=O)OC(c2ccc([N+](=O)[O-])cc2)O1	t

###

Test system: T-47D breast
protocol text: NCI-60 one-dose screen, 48 h (100 = growth as untreated, 0 = no growth, -100 = all killed)
assay setup: 10 µM unless noted
About 83,000 compounds went through this panel and 20% of them were active in at least one assay; those are over-represented in the sample as a whole.

compound	measurement units	growth
COc1cc(-c2n/c(=C\c3c(O)[nH]c4ccc(Cl)cc34)cc3c2=Nc2ccccc2-3)ccc1F	%	56
CC[C@]12C=CCN3CC[C@@]4(c5cc(NC(=O)CCC(=O)O[C@H]6CC[C@H]7[C@@H]8CCC9=CC(=O)CC[C@@H]9[C@H]8CC[C@]67C)c(OC)cc5N(C)[C@H]4[C@@](O)(C(=O)OC)[C@@H]1OC(C)=O)[C@@H]32	%	53
COc1ccc(Cc2cnc(NC(=O)c3ccc4c(c3)OCCO4)s2)cc1	%	42.8
CCNc1nc2ccc(Nc3ccnc4cc(Cl)ccc34)cc2[nH]1	%	100
C=C1C(=O)O[C@H]2[C@H]1CC/C(C(=O)NCCCCCNC(=O)/C1=C/CC[C@@]3(C)O[C@H]3[C@H]3OC(=O)C(=C)[C@@H]3CC1)=C\CC[C@@]1(C)O[C@@H]21	%	94.2
COc1cc(NC(=O)CSc2nc3ccc(C)cc3c(=O)n2Cc2ccccc2)cc(OC)c1OC	%	22.8
CCN1Cc2nc3sc(C)c(C)c3c(=O)n2C=C1C	%	37.1
COc1cc(C=O)ccc1OC1OC(COC(C)=O)C(OC(C)=O)C(OC(C)=O)C1OC(C)=O (stereo not drawn)	%	92.4
N#Cc1c(NC(=O)NCc2ccccc2)sc2c1CCCCC2	%	37.8
COc1ccc(C(=O)CSc2nc(-c3cc(OC)ccc3OC)cc(-c3ccc(Cl)cc3)c2C#N)cc1	%	32.3
O=C(/C=C/c1c(-c2ccc(Cl)cc2)nn(-c2ccccc2)c1C(F)(F)F)c1ccc(Cl)cc1	%	64.8
CN1CCN(C(=O)[C@]23CCC(C)(C)C[C@H]2C2=CC[C@@H]4[C@@]5(C)C/C(=C/c6cccnc6)C(=O)C(C)(C)[C@@H]5CC[C@@]4(C)[C@]2(C)CC3)CC1	%	34.5
Cc1c(C(=O)NCCC(=O)NO)sc2ncnc(Nc3ccc(F)c(Cl)c3)c12	%	107
COc1ccc(C(=O)c2cc(C)c(OC)c(C)c2)c(OC)c1NC(C)=O	%	60.6
COc1ccc2c(c1)C(=O)CC(c1ccccc1OC)O2 (stereo not drawn)	%	91.1
O=C(Nc1cccc(C2=NCCN2)c1)c1ccc(-c2ccc(C(=O)Nc3cccc(C4=NCCN4)c3)cc2)cc1	%	58.5
COc1cc(/C=C/c2cc(O)c(C(C)=O)c(O)c2)cc2c1O[C@]1(C)CC[C@@H](O)C(C)(C)[C@H]1C2	%	49
COc1ccc(NC(=O)c2cc(NCc3cc(O)ccc3O)ccc2O)cc1	%	68.4
Cc1cc(C(=O)/C=C/c2ccc[nH]2)ccc1-n1ccc(C(F)(F)F)n1	%	85
C[C@H](c1nc2ccc(N)cc2[nH]1)[C@H]1CC[C@H]2[C@@H]3CCC4=CC(=O)CC[C@]4(C)[C@H]3CC[C@]12C	%	77.8
CC(=O)[C@@H]1CC[C@]2(C(N)=O)CC[C@]3(C)[C@H](CC[C@@H]4[C@@]5(C)CCCNC(C)(C)[C@@H]5CC[C@]43C)[C@@H]12	%	93.9
COc1ccc(/C=C2\Oc3cc(OCCCN4CCCCC4)ccc3C2=O)cc1OC	%	97.8
COc1cc(/C=C\c2cc(/C=C\c3ccc(O)c(OC)c3)n(C(=O)COc3ccccc3)n2)ccc1O	%	12.4
